Test system: 786-0 renal
ASSAY PROCEDURE: NCI-60 one-dose screen, 48 h
CONDITION LABEL: 10 µM unless noted
The panel holds about 83,000 compounds, 20% with a hit somewhere; the sample as a whole holds those more often. Calls of active or inactive are those of the source. The calls were made as follows: active = growth percent below 10; inactive = the rest.
Outcomes you can answer with include only these: active, inactive

**Q:** So what was the verdict on CC(=O)Nc1ccc(NC(=O)Nc2cccc(-c3nc(-c4ccc(NC(=O)c5cccs5)cc4Cl)no3)c2)cc1C(F)(F)F in this test?
**A:** active

**Q:** Request: CC(=O)Nc1ccc(C)c(Nc2cc(-c3ccc(-n4cccn4)cc3)[nH]n2)c1
**A:** inactive

----------
Test system: NCI-H23 lung
ASSAY PROCEDURE: NCI-60 one-dose screen, 48 h (100 = growth as untreated, 0 = no growth, -100 = all killed)
CONDITION LABEL: 10 µM unless noted
Procedure: Growth inhibition of the NCI-H23 human Non-Small Cell Lung tumor cell line is measured as a screen for anti-cancer activity. Cells are grown in 96 well plates and exposed to the test compound for 48 hours. Compounds are tested at a single concentration, which is 10^-5 M for most compounds. The reported endpoint is percent growth (GI% or GIPRCNT), where numbers from 0 - 100% represent growth inhibition, and numbers from -100% - 0 represent cell death. […]
The panel holds about 83,000 compounds, 20% with a hit somewhere; the sample as a whole holds those more often.
OBSERVABLE: growth (%)
Dear colleague, please return just the value in %, with no unit written.

Recorded growth, per entry:
MOLECULE: COc1cc(C(=O)c2cc(C(C)=O)c3c4ccccc4ccn23)cc(OC)c1OC
OBSERVABLE: growth
RESULT NUMBER: 64.4
//
MOLECULE: COc1cc(/C=N/n2cnc3oc(-c4ccccc4)cc3c2=N)cc(CN2CCCCC2)c1O
OBSERVABLE: growth
RESULT NUMBER: -56.4
//
MOLECULE: Clc1ccccc1/C=C/c1nn2c(-c3ccncc3)nnc2s1
OBSERVABLE: growth
RESULT NUMBER: 99
//
MOLECULE: O=c1cc(-c2ccccc2)nc2sc(-c3c[nH]c4ccc(Br)cc34)nn12
OBSERVABLE: growth
RESULT NUMBER: 104
//
MOLECULE: O=S(=O)(Nc1ccc(C2CC2)cc1)c1ccc(-c2cnc(C3CC3)o2)cc1
OBSERVABLE: growth
RESULT NUMBER: 73.9
//
MOLECULE: O=C1Nc2ccc(Cl)cc2/C1=C/c1ccc(OCc2ccc(Br)cc2F)cc1
OBSERVABLE: growth
RESULT NUMBER: 98.6
//
MOLECULE: CC(C)(C)OC(=O)N1CCN(S(=O)(=O)/N=C2\NC(=O)NC2=C(Cl)Cl)CC1
OBSERVABLE: growth
RESULT NUMBER: 91.8
//
MOLECULE: CS(=O)c1nccc(-c2c(-c3ccc(F)c(OCCc4ccc(F)cc4)c3)nc3sccn23)n1 (stereo not given)
OBSERVABLE: growth
RESULT NUMBER: 7.95
//
MOLECULE: N#C/C(=C\c1ccc(-c2ccc(F)cc2)o1)C(=O)Nc1ncc(Cc2ccc(Cl)cc2Cl)s1
OBSERVABLE: growth
RESULT NUMBER: -37.2

Please turn your attention to the following entry.
**Q:** Endpoint output: growth of C/C=C/C=C1\C[C@H]2CO[C@H](O2)C1=O . Value?
**A:** 93.9

----------
Test system: ACHN renal
ASSAY PROCEDURE: NCI-60 one-dose screen, 48 h (100 = growth as untreated, 0 = no growth, -100 = all killed)
CONDITION LABEL: 10 µM unless noted
About 83,000 compounds went through this panel and 20% of them were active in at least one assay; those are over-represented in the sample as a whole.
OBSERVABLE: growth (%)
Report the figure in % without appending any unit label.

Worked set:
MOL SMILES: COc1ccc(S(=O)(=O)n2cc(C=O)c3ccccc32)c(OC)c1
RESULT NUMBER: 85.6
--
MOL SMILES: COc1ccc([C@H]2[C@H](O)C(=O)N2c2cc(OC)c(OC)c(OC)c2)cc1O
RESULT NUMBER: 28.1
--
MOL SMILES: Cn1cc(-c2nn3cc(-c4cccnc4)nc3s2)c2ccccc21
RESULT NUMBER: 48.1
--
MOL SMILES: O=c1[nH]c2cc(Cl)ccc2n1C1CCN(c2ccc3nnc(Cl)n3n2)CC1
RESULT NUMBER: 88.2

Read the next record carefully.
**Q:** Lab note: need growth for COc1ccc(-c2nc3cc(Cl)c(Cl)cc3n2CC(=O)N=Nc2c(O)[nH]c3ccc(Br)cc23)cc1 on ACHN renal, anyone have it?
**A:** -83

----------
Test system: IGROV1 ovarian
ASSAY PROCEDURE: NCI-60 one-dose screen, 48 h (100 = growth as untreated, 0 = no growth, -100 = all killed)
CONDITION LABEL: 10 µM unless noted
Compounds without any hit were thinned out: in the full panel of roughly 83,000, 20% have a hit.
Param label: returns T when growth < 50%, returns F otherwise, including exact equality.

COMPOUND: Oc1ccc(CSc2nnc(-c3ccc(Cl)cc3)o2)c2cccnc12
GROUP: T
//
COMPOUND: C#CCOc1ccc(C(Nc2cc(Cl)ccc2Cl)c2nnnn2C2CCCCC2)cc1 (stereo not given)
GROUP: F
//
COMPOUND: Clc1ccc(-c2csc(N/N=C/c3nc4ccccc4n3C3CC3)n2)cc1
GROUP: F
//
COMPOUND: Nc1nc(-c2cccc([N+](=O)[O-])c2)c(N=Nc2ccccc2Cl)s1
GROUP: F
//
COMPOUND: O=C(NNc1nc2cc(F)cc(F)c2n2cccc12)c1ccncn1
GROUP: T

**Q:** Given CS(=O)(=O)c1ccc2c(c1)c1c(n2C(=O)c2ccc(Cl)cc2)CCCC1 , is recorded growth strictly lower than 50%?
**A:** T

**Q:** Entry O=C(Nc1ccc(F)cc1)c1cc(-c2ccc(F)cc2F)ccc1O please
**A:** T

**Q:** And for CCC(CC)n1c(=O)c(SC2=NC3C(NN2)N(CC)C(=O)N3CC)c(C(=O)O)c2ccccc21 (stereo not given) ?
**A:** T

**Q:** Same for NNC(=O)c1sc2nc(-c3cnccn3)cc(-c3cccs3)c2c1N
**A:** F

**Q:** Check O=C1[C@H]2Cc3c([nH]c4ccccc34)[C@H](c3ccc(Cl)cc3)N2C(=O)CN1C1CCN(Cc2c(Cl)cccc2Cl)CC1 too.
**A:** T

----------
System: OVCAR-4 ovarian
ASSAY PROCEDURE: NCI-60 one-dose screen, 48 h
CONDITION LABEL: 10 µM unless noted
This is part of a sample that, as a whole, favours compounds with a hit. Of some 83,000 tested, about 20% had one in any assay. Activity calls are given as the source filed them. The calls were made as follows: active = growth percent below 10; inactive = the rest.
Choose the fitting class; nothing outside active, inactive is accepted.

Solved cases below.
COMPOUND: C#CCOc1ccc(/C=N/Nc2nc(-c3cc(Cl)ccc3Cl)cs2)cc1
GROUP: inactive
--
COMPOUND: Cn1c2ccccc2c2c3c(c4c5ccc(Br)cc5oc4c21)C(=O)N(O)C3=O
GROUP: inactive
--
COMPOUND: O=C(/C=C/Nc1ccc(S(=O)(=O)O)cc1)c1ccc(F)cc1
GROUP: inactive

**Q:** Status in this test for O=C(NCCCCCCNC(=O)c1c2c(nc3ccccc13)-c1cccnc1SC2)c1c2c(nc3ccccc13)-c1cccnc1SC2 ?
**A:** inactive

**Q:** Thanks! And O=C(Nc1cccc(-c2nc(-c3ccc(NC(=O)c4cccnc4)cc3Cl)no2)c1)Nc1ccc(NC(=O)C2CC2)c(C(F)(F)F)c1 ?
**A:** active

**Q:** What do you get for C=CCn1c(SCC(=O)Nc2cccc(C(=O)/C=C/c3ccc(Cl)cc3)c2)nc2ccccc2c1=O ?
**A:** inactive

**Q:** Repeat for the following compound: Oc1ccc(CSc2nnc(-c3ccc(Br)cc3)o2)c2cccnc12
**A:** inactive

**Q:** Field entry: N#Cc1ccc(S(=O)(=O)Nc2ccc(-c3cnc(N)[nH]3)cc2)cc1
**A:** inactive

**Q:** Do the same for CN1C(=O)N(C)C2Nn3c(s/c(=C\c4ccccn4)c3=O)=NC21 (stereo not given) please
**A:** inactive

**Q:** Moving on to the next compound: CCN1C(=O)N(CC)C2SC(N/N=C/c3cccs3)=NC21 (stereo not given)
**A:** inactive

**Q:** Can you handle CCOC(=O)/C=c1\sc2n(c1=O)C1C(NN=2)N(CC)C(=O)N1CC (stereo not given) next?
**A:** inactive

**Q:** And the next one, COc1ccc(Cn2cc3c(c2-c2ccccc2)CCCc2cnoc2-3)cc1[N+](=O)[O-] ?
**A:** inactive

**Q:** Another compound to look at: C#C[C@]1(O)CC[C@H]2[C@@H]3CC=C4c5sc(Nc6cc(OC)ccc6OC)nc5CC[C@]4(C)[C@H]3CC[C@@]21C
**A:** inactive

**Q:** Then this compound: Cc1nn(-c2ccccc2)cc1/C=N/Nc1nc(Nc2ccccc2)nc(Nc2ccc(S(N)(=O)=O)cc2)n1
**A:** inactive

**Q:** Try N/C(=N\c1nc2c(Cl)cccc2s1)C(Cl)(Cl)Cl next.
**A:** inactive

**Q:** Entry to check: COc1ccc2c(c1)c(-c1nnc(N)nc1-c1cn(C)c3ccccc13)cn2C
**A:** inactive

**Q:** Now the same for CC[C@@](C)(NC(=O)C(C)(C)NC(=O)[C@@H](NC(=O)[C@@H]1CCCN1C(=O)C(C)(C)NC(=O)[C@H](CC(C)C)NC(=O)CNC(=O)C(C)(C)NC(=O)[C@@H](NC(=O)C(C)(C)NC(=O)[C@H](CCC(N)=O)NC(=O)[C@H](C)NC(=O)C(C)(C)NC(=O)[C@H](C)NC(=O)C(C)(C)NC(=O)[C@H](C)NC(=O)C(C)(C)NC(C)=O)C(C)C)C(C)C)C(=O)N[C@@H](CCC(N)=O)C(=O)N[C@@H](CCC(N)=O)C(=O)N[C@H](CO)CC1CCCCC1
**A:** inactive

**Q:** Subsequent entry: C#Cc1ccc(NC(=O)c2ccc(/C=C/C(=O)c3nccn3C)cc2)c(F)c1
**A:** inactive

**Q:** What about O=c1cc(-c2ccccc2)nc2sc(-c3c[nH]c4ccc(F)cc34)nn12 ?
**A:** active

**Q:** Field entry: O=C(COc1ccc(C2SCC(=O)N2c2ccc(F)cc2)cc1)c1ccccc1 (stereo not given)
**A:** inactive
